- Assayed target: UniProt:P04181
- Sequence (P04181 36-439 limits assumed): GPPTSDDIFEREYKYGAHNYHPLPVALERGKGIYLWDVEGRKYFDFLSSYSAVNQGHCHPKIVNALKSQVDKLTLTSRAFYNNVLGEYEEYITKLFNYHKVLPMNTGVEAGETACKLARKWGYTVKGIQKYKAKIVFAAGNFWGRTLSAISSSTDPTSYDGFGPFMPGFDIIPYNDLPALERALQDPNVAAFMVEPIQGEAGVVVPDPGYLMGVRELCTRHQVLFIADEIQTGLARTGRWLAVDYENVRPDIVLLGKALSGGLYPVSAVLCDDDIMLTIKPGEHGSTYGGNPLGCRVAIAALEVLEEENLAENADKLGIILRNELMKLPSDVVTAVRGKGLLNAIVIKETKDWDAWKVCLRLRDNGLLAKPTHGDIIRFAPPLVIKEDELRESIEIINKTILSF
pKi: −log10 of the molar value.
Metric: pKi

>>> measured_result("COc1ccc(CN2C(=O)[C@H]3CC(=C(F)F)[C@@H]2C3)cc1 [Compound 13]")
5.52
